Reported koff values are given for each entry in this list.
# assayTarget: T1, Cyno RGMa-His (cynomolgus monkey, UniProt Q9N0A6 54-431, limits assumed)
# T1 construct: also called cynomolgus (cyno) monkey RGMa (BIAcore); not shown: His tag
# T1 sequence (looked up): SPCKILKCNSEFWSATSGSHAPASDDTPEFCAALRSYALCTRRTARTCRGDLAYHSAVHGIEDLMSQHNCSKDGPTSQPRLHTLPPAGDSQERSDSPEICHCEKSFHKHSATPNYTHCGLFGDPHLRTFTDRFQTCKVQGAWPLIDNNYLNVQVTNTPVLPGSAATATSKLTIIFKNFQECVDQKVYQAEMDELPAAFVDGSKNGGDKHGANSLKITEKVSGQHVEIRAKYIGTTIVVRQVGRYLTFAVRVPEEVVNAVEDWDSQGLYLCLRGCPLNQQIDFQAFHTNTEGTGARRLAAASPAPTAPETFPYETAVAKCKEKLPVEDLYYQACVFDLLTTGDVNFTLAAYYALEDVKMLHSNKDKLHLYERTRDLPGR
# experiment: BIAcore
Write the value in s⁻¹ as a bare number.

binder	unitAbbrev	koff
AE12-1-Y (antibody, V domains shown, AE12-1 variant; IgG) VH: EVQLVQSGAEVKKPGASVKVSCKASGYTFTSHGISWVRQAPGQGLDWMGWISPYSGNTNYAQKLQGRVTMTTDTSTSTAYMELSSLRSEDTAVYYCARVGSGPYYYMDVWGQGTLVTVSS VL: QSALTQPRSVSGSPGQSVTISCTGTSSSVGDSIYVSWYQQHPGKAPKLMLYDVTKRPSGVPDRFSGSKSGNTASLTISGLQAEDEADYYCYSYAGTDTLFGGGTKVTVL	s⁻¹	0.0002
AE12-1 (antibody, V domains shown, lambda light chain) VH: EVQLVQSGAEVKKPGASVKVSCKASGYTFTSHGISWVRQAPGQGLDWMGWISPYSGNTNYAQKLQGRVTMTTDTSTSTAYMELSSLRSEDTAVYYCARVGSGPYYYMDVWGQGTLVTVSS VL: QSALTQPRSVSGSPGQSVTISCTGTSSSVGDSIYVSWYQQHPGKAPKLMLYDVTKRPSGVPDRFSGSKSGNTASLTISGLQAEDEADYYCCSYAGTDTLFGGGTKVTVL	s⁻¹	0.0017
AE12-1-K (antibody, V domains shown, AE12-1 variant; IgG) VH: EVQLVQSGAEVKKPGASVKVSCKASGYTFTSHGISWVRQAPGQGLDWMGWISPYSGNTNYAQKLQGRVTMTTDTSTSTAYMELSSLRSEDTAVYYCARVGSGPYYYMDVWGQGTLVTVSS VL: QSALTQPRSVSGSPGQSVTISCTGTSSSVGDSIYVSWYQQHPGKAPKLMLYDVTKRPSGVPDRFSGSKSGNTASLTISGLQAEDEADYYCKSYAGTDTLFGGGTKVTVL	s⁻¹	0.00047
AE12-1-I (antibody, V domains shown, AE12-1 variant; IgG) VH: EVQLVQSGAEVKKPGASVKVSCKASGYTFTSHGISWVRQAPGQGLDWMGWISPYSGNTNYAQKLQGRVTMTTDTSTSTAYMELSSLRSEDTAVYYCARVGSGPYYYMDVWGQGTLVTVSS VL: QSALTQPRSVSGSPGQSVTISCTGTSSSVGDSIYVSWYQQHPGKAPKLMLYDVTKRPSGVPDRFSGSKSGNTASLTISGLQAEDEADYYCISYAGTDTLFGGGTKVTVL	s⁻¹	0.00087

Attention now shifts to the item below.
stdin: Identify koff associated with the binder AE12-1-F (antibody, V domains shown, AE12-1 variant, Cys of VL CDR-L3 replaced; IgG) VH: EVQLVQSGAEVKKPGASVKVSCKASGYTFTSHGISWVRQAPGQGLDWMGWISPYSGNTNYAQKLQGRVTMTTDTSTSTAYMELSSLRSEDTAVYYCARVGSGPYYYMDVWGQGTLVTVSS VL: QSALTQPRSVSGSPGQSVTISCTGTSSSVGDSIYVSWYQQHPGKAPKLMLYDVTKRPSGVPDRFSGSKSGNTASLTISGLQAEDEADYYCFSYAGTDTLFGGGTKVTVL
stdout: 0.00025
